- System: OVCAR-4 ovarian
- protocolSummary: NCI-60 one-dose screen, 48 h (100 = growth as untreated, 0 = no growth, -100 = all killed)
- testSettings: 10 µM
The panel holds about 83,000 compounds, 20% with a hit somewhere; the sample as a whole holds those more often.
The label condition met is reserved for growth strictly under 60%; condition not met covers values equal to or above it.

Is growth of `Cc1ccc2nc(-c3ccc(OCC(=O)N=Nc4c(O)[nH]c5ccccc45)cc3)[nH]c2c1` strictly below 60%? condition met

Is growth of `COc1ccccc1NC1=C(N2CCCCC2)C(=O)c2ccccc2C1=O` strictly below 60%? condition not met

Is growth of CC(=O)OC1Oc2ccccc2-c2oc(=O)c(-c3cc(=O)oc4cc(O)ccc34)cc21 (stereo not drawn) strictly below 60%? condition not met

Is growth of `CC(C)c1[nH]nc2c(NCc3ccc(-c4ccccn4)cc3)nc(SCCN)nc12` strictly below 60%? condition met

Is growth of `FC(F)(F)c1ccc(-c2nc(-c3nc4cc(Cl)c(Cl)cc4[nH]3)c3ccccn23)cc1` strictly below 60%? condition met

Is growth of `CCCCCCCCCCCCCCCC(=O)N1CCN(C)CC1` strictly below 60%? condition not met

Is growth of `CS(=O)(=O)Nc1ccc(OCc2nnc(-c3ccc(Cl)cc3)o2)c(F)c1` strictly below 60%? condition not met

* * *

Kindly supply the reported growth values for the records listed here.
- System: MALME-3M melanoma
- protocolSummary: NCI-60 one-dose screen, 48 h (100 = growth as untreated, 0 = no growth, -100 = all killed)
- testSettings: 10 µM
Compounds without any hit were thinned out: in the full panel of roughly 83,000, 20% have a hit.
Reply with just the number (in %).

Please tell me the measured growth for COc1ccc(C(C)=O)cc1N1C(=O)C2C(C1=O)C1(c3ccccc3)C(=O)C2(c2ccccc2)C(c2ccc(C)cc2)=C1c1ccc(C)cc1 (configuration not stated) ; system: MALME-3M melanoma. 17

Please tell me the measured growth for CCN(CC)CCn1c(=N)n(CC(O)c2ccc(Cl)c(Cl)c2)c2ccccc21 (configuration not stated) ; system: MALME-3M melanoma. -35.6

Please tell me the measured growth for `CCCCCc1cc[n+](CC(=O)c2ccc(Cl)cc2)cc1` ; system: MALME-3M melanoma. 89.8

Please tell me the measured growth for `O=C(O)CCCN1C(=O)NC2(C1=O)c1ccccc1-c1ccccc12` ; system: MALME-3M melanoma. 97.3

Please tell me the measured growth for CCCCCCCCCCSC(=N)N (tested in a mixture with another compound) ; system: MALME-3M melanoma. 82.7

Please tell me the measured growth for `O=C1/C(=C/c2ccc(O)cc2)Oc2ccc(Cl)cc21` ; system: MALME-3M melanoma. 82.4

Please tell me the measured growth for COc1ccc(C2=NNC(c3sc(Cl)nc3Cl)C2)cc1 (configuration not stated) ; system: MALME-3M melanoma. 74.3

* * *

- Test system: NCI-H522 lung
- protocolSummary: NCI-60 one-dose screen, 48 h (100 = growth as untreated, 0 = no growth, -100 = all killed)
- testSettings: 10 µM
Compounds without any hit were thinned out: in the full panel of roughly 83,000, 20% have a hit.
experimentalReadout: growth (%)
Reply with just the number (in %).

Tell us which growth value is on record for `CCCCCCCCCCCCCCCC(=O)N1CCN(C)CC1` 17.1

Tell us which growth value is on record for `COc1ccccc1Cn1cc2c(c1-c1ccccc1)CCc1cnoc1-2` 42.1

Tell us which growth value is on record for `CC1(C)CNC(=O)N1` 83.9

* * *

- System: A498 renal
- protocolSummary: NCI-60 one-dose screen, 48 h (100 = growth as untreated, 0 = no growth, -100 = all killed)
- testSettings: 10 µM
About 83,000 compounds went through this panel and 20% of them were active in at least one assay; those are over-represented in the sample as a whole.
Kindly supply the reported growth values for the records listed here.
Reply with just the number (in %).

Tell us which growth value is on record for `COc1ccc2nc(NC(=O)Nc3c(F)cccc3F)sc2c1` 87.9

Tell us which growth value is on record for `N#Cc1c2c([nH]c(=O)c1C(N)=O)CCCCC2` 89.8

Tell us which growth value is on record for `Cc1cc(C)c2c(Nc3ncnc4c3sc3nc(C)cc(C)c34)n[nH]c2n1` 92.3

Tell us which growth value is on record for `Cc1noc(C)c1-c1ccc2nc(NC(=O)[C@H]3CCN(C#N)C3)cn2c1` 88.9

Tell us which growth value is on record for `Nc1ncc(-c2ccc(C(F)(F)F)cc2)c(NC2CCCCCC2)n1` 58.8

Tell us which growth value is on record for `N#CCC1CCCC1` 91

Tell us which growth value is on record for `N#Cc1ncc(-c2cc(F)ccc2F)c(NC2CCCCCC2)n1` 58.2

Tell us which growth value is on record for `Cc1ccc(C)c(S(=O)(=O)NC2c3ccccc3Oc3ccccc32)c1` 90.9

Tell us which growth value is on record for O=C(c1ccccc1)C(Sc1ccccc1)c1ccccc1 (centres undefined) 92.1

* * *

Kindly supply the reported growth values for the records listed here.
- Tested on: NCI/ADR-RES ovarian
- protocolSummary: NCI-60 one-dose screen, 48 h (100 = growth as untreated, 0 = no growth, -100 = all killed)
- testSettings: 10 µM
- Method: Growth inhibition of the NCI/ADR-RES human […] tumor cell line is measured as a screen for anti-cancer activity. Cells are grown in 96 well plates and exposed to the test compound for 48 hours. Compounds are tested at a single concentration, which is 10^-5 M for most compounds. The reported endpoint is percent growth (GI% or GIPRCNT), where numbers from 0 - 100% represent growth inhibition, and numbers from -100% - 0 represent cell death. For example, a value of 40 represents 60% growth inhibition. […]
This is part of a sample that, as a whole, favours compounds with a hit. Of some 83,000 tested, about 20% had one in any assay.
Reply with just the number (in %).

Tell us which growth value is on record for `Cc1ccc(C)c(S(=O)(=O)NC2c3ccccc3Oc3ccccc32)c1` 88.5

Tell us which growth value is on record for `CCCCCCCCCCCCCCCCn1cc[n+](C)c1` 37.1

Tell us which growth value is on record for `COc1cc(-c2c(C#N)c(N)n3c(nc4ccccc43)c2C#N)cc(Br)c1OC` 78.1

Tell us which growth value is on record for CCCCCC(=O)N1c2ccccc2NC2=C(C(=O)CC(c3ccc(OC)c(OC)c3)C2)C1c1ccc(C(F)(F)F)cc1 (configuration not stated) 58.7

Tell us which growth value is on record for c1ccc(CC(NCCNC(Cc2ccccc2)c2ccccc2)c2ccccc2)cc1 (configuration not stated) 38.8

Tell us which growth value is on record for COc1ccc(C(C)=O)cc1N1C(=O)C2C(C1=O)C1(c3ccccc3)C(=O)C2(c2ccccc2)C(c2ccc(C)cc2)=C1c1ccc(C)cc1 (configuration not stated) 12.7

Tell us which growth value is on record for `COc1cccc(-c2nnc(COc3ccc(-c4nc5ccccc5[nH]4)cc3OC)o2)c1` 89

Tell us which growth value is on record for `COc1ccc(-c2nnc(COc3ccc(NC(=O)Nc4ccccc4)cc3F)o2)cc1` 97.4

Tell us which growth value is on record for CCOc1cc(Br)c(C(C)NC(=O)c2cccc(OC)c2)cc1OCC (configuration not stated) 94.4

Tell us which growth value is on record for `Cn1c([N+](=O)[O-])cnc1C=C1C(=O)c2ccccc2C1=O` 44.5

Tell us which growth value is on record for `Nc1c(CNCc2nnn(Cc3ccccc3)c2N)nnn1Cc1ccccc1` 97.2

Tell us which growth value is on record for `Cc1ccc(-c2cc(-c3cccc(Nc4ccnc5cc(Cl)ccc45)c3)nc3nc(N)[nH]c(=O)c23)cc1` 100

* * *

- Tested on: NCI-H460 lung
- protocolSummary: NCI-60 one-dose screen, 48 h (100 = growth as untreated, 0 = no growth, -100 = all killed)
- testSettings: 10 µM
- Protocol: Growth inhibition of the NCI-H460 human Non-Small Cell Lung tumor cell line is measured as a screen for anti-cancer activity. Cells are grown in 96 well plates and exposed to the test compound for 48 hours. Compounds are tested at a single concentration, which is 10^-5 M for most compounds. The reported endpoint is percent growth (GI% or GIPRCNT), where numbers from 0 - 100% represent growth inhibition, and numbers from -100% - 0 represent cell death. […]
The panel holds about 83,000 compounds, 20% with a hit somewhere; the sample as a whole holds those more often.
Kindly supply the reported growth values for the records listed here.
Reply with just the number (in %).

Tell us which growth value is on record for `CC(C)/C(=N/O)c1ccccc1` 120

Tell us which growth value is on record for O/N=C1\CCC2CCCCC2C1 (centres undefined) 103

Tell us which growth value is on record for `CNCCCNCCCN1C(=O)c2ccc3c4c(ccc(c24)C1=O)C(=O)N(CCCNCc1ccccc1OC)C3=O` -16.6

Tell us which growth value is on record for `O=C1c2cc(Cl)ccc2-c2c(O)cc(Cl)cc21` 99.5
